Origin of measurements: paper PMC3565751

system: Capan-2 cell homogenate; test: Prodrug hydrolysis in Capan-2 cell homogenate with the presence and the absence of selective enzyme inhibitors; format: in vitro ADME; conditions: Capan-2 cell homogenate with pepstatin A; 37 °C, pH 7.4
# label = yes if Half Life, Cathepsin D Inhibitor >= 1 h else no

Examples from the recorded data:
>>> category("N[C@@H](Cc1ccccc1)C(=O)N[C@@H](Cc1ccc(O)cc1)C(=O)OC[C@H]1O[C@@H](n2cc(F)c(=O)[nH]c2=O)C[C@@H]1O")
"yes"
>>> category("N[C@@H](Cc1ccccc1)C(=O)NCC(=O)OC[C@H]1O[C@@H](n2cc(F)c(=O)[nH]c2=O)C[C@@H]1O [5'-O-L-phenylalanyl-L-glycyl-floxuridine]")
"no"
>>> category("CC(C)[C@H](N)C(=O)N[C@@H](Cc1ccccc1)C(=O)OC[C@H]1O[C@@H](n2cc(F)c(=O)[nH]c2=O)C[C@@H]1O [5'-O-L-valyl-L-phenylalanyl-floxuridine]")
"yes"

Incoming: Entry CC(C)C[C@H](N)C(=O)NCC(=O)OC[C@H]1O[C@@H](n2cc(F)c(=O)[nH]c2=O)C[C@@H]1O [5'-O-L-leucyl-L-glycylfloxuridine] : is its Half Life, Cathepsin D Inhibitor no less than 1 h?
Outgoing: no
